Biological target: EBOV GPddmuc (Ebola virus (EBOV), UniProt Q05320 33-650)
Assay: ELISA
pEC50: −log10 of the molar value.

# binder, pEC50
rows = [
    ("FVM41 (antibody, V domains shown) VH: EVQLVQSGAEVKRPGESLKISCKTSGYSFTDTWISWVRQMPGKGLEWMGSIYPGDSETKYNPSFQGHVTISADKSVTTTYLKWSSLKASDTATYYCVKGSETWGQGVLVTVSS VL: ETVVTQPASLSASPGASASLTCTFSGGINVAGYNILWYQQKAGSPPRYLLRYKSDSTKDQGSGVPSRFSGSKDASANTGILRISGLQSEDEADYYCAIGHSSGVLFGGGTRLTVL", 10.33),
    ("FVM12 (antibody, V domains shown) VH: EVQLVQSGAEVKRPGESLTISCKTSEYSFTGSWISWVRQMPGKGLEWMGSIYPGDSDTRYSPSFQGQVTISADKSVTTTYLKWSSLKASDTATYYCVKGSETWGQGVLVTVSS VL: QPVLTQPASLSASLGASASLTCTFSGGINVAGYNILWYQQKPGSPPRFLLRYKSDSDNVQGSGVPSHFSGSKDASTNTGILRISGLQSEDEADYYCAIGHSSGWVFGGGTRLTVL", 10.04),
    ("FVM06 (antibody, V domains shown) VH: EVQLVQSGAEVKRPGESLTISCKTSGYSFTNYWISWVRQMPGEGLEWMGAIDPSDSDTRYSPSFQGQVTMSADKSITTAYLQWSSLKASDTATYYCVKGSETWGQGVLVTVSS VL: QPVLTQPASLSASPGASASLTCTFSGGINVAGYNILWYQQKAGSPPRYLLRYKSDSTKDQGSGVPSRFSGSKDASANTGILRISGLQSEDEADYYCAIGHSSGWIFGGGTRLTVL", 10.23),
    ("FVM22 (antibody, V domains shown) VH: EVQLVQSGAEVKRPGESLTISCKTSGYSFTDSWVAWVRQMPGKGLEWLGSIYPGDSETKYNPSFQGHVTISADKSISTAYLQWSSLKASDTATYYCAKGSETWGQGVLVTVSS VL: SSGLTQPASLSASPGASASLTCTFSGGINVAGYNILWYQQKAGSPPRYLLRYKSDSTKDQGSGVPSRFSGSKDASANTGILRISGLQSEDEADYYCAIGHSSGWIFGGGTRLTVL", 10.17),
    ("FVM31 (antibody, V domains shown) VH: QVQLVQSGAEVKRPGESLTISCKTSGYSFTDSWVAWVRQMPGKGLEWLGSIYPGDSDARYNPSFQGHVTISADTSVTTTYLKWSSLKASDTATYYCVKGSETWGQGVLVTVSS VL: KPMLTQPASLSASPGASASLTCTFSGGINVAGYNILWYQQKAGSPPRYLLRYKSDSTKDQGSGVPSRFSGSKDASANTGILRISGLQSEDEADYYCAIGHSSGWIFGGGTRLTVL", 9.97),
    ("FVM18 (antibody, V domains shown) VH: QVQLVQSGAEVKRPGESLKISCKTSGYSFTNIWISWVRQMPGKGLEWLGSIYPGDSETKYNPSFQGHVTISADKSVTTTYLKWSSLKASDTATYYCVKGSETWGQGVLVTVSS VL: NFMLTQPASLSASPGASASLTCTFSGGINVAGYHILWYQQKPGSPPRYLLRYKSDSEKDQGSGVPSRFSGSKDASANRGILRISGLQSEDEADYYCAIGHSSSGWVFGGGTRLTVL", 10.00),
    ("FVM33 (antibody, V domains shown) VH: QVQLVQSGAEVKRPGESLKISCKTSRYSFTSSWIGWVRQMPGKGLEWLGSIYPGDSDTRYNPSFQGHVTISADKSVTTTYLKWSSLKASDTATYYCVKGSETWGQGVLVTVSS VL: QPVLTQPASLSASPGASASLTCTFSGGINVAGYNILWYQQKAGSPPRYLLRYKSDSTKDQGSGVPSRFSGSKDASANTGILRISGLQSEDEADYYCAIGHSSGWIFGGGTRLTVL", 10.40),
    ("FVM38 (antibody, V domains shown) VH: QVQLVQSGAEVKRPGESLTISCKTSGYSFTDSWIGWVRQMPGKGLEWMASIYPDDSETKYNPSFQGHVTISADKSVTTTYLKWSSLKASDTATYYCVKGSETWGQGVLVTVSS VL: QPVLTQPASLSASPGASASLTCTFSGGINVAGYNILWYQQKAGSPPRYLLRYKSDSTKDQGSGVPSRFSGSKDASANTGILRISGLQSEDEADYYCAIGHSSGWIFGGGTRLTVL", 10.22),
    ("FVM27 (antibody, V domains shown) VH: EVQLVQSGAEVKRPGESLKISCKTSGYSFASSWISWVRQMPGKGLEWMGAIDPSDSATRYSPSFQGQVTISADKSISTAYLQWSSLKASDTATYYCVKGSETWGQGVLVTVSS VL: QPVLTQPASLSASPGASASLTCTFSGGINVAGYNILWYQQKAGSPPRYLLRYKSDSTKDQGSGVPSRFSGSKDASANTGILRISGLQSEDEADYYCAIGHSSGWIFGGGTRLIVL", 10.33),
    ("FVM11 (antibody, V domains shown) VH: EVQLVQSGAEVKRPGESLTISCKTSGYSFTDSWVAWVRQMPGKGLEWLGSIYPGDSETKYNPSFQGHVTISADKSVTTTYLKWSSLKASDTATYYCVKGSETWGQGVLVTVSS VL: NFMLTQPASLSASPGASASLTCTFSGGINVAGYNILWYQQKAGSPPRYLLRYKSDSTKDQGSGVPSRFSGSKDASANTGILRISGLQSEDEADYYCAIGHSSGWIFGGGTRLTVL", 10.23),
]
